- targetOfAssay: human PPAR α (Homo sapiens)
- Construct: expressed in transfected cells; host or cells: HepG2 (ATCC HB-8065) or 293T cells (ATCC CRL-1573)
- Sequence (Q07869 239-466 limits assumed): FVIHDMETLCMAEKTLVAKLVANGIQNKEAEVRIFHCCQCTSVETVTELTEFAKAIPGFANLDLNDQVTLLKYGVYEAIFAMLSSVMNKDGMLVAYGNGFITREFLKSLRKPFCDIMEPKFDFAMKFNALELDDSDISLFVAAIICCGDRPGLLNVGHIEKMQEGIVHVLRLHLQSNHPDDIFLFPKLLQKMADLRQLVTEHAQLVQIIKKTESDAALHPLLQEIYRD
- testName: Exogeneous PPAR α agonist assay (GAL4 DNA binding domain/PPAR α ligand binding domain, luciferase) in 293T cells
- Format: cell-based
- Parameters: scale not given here
- testParameters: 25 μM compound, 48 hours, luciferase activity increase relative to the control
metric: Activity at 25 μM Step 1 293T cell
Please respond with just the number, no unit label.

{"columns": ["molecule", "Activity at 25 μM Step 1 293T cell"],
 "data": [
  ["Cc1ccc(-c2nc(COc3ccc(CN(CC(=O)O)S(=O)(=O)N4CCc5ccccc54)cc3)c(C)o2)cc1 [Example 54]", 2]
]}

Tell me reported Activity at 25 μM Step 1 293T cell for Cc1ccc(-c2nc(COc3ccc(CN(CC(=O)O)S(=O)(=O)N(C)c4ccccc4)cc3)c(C)o2)cc1 [Example 46] , tested with human PPAR α (Homo sapiens).
2

Tell me reported Activity at 25 μM Step 1 293T cell for Cc1oc(-c2ccc(C(F)(F)F)cc2)nc1COc1cccc(CN(CC(=O)O)S(=O)(=O)N2CCCc3ccccc32)c1 [Example 36] , tested with human PPAR α (Homo sapiens).
2

---

- System: ob/ob mice
- testName: Anti-obesity test: lipid metabolism-related materials and glucose in blood of ob/ob mice
- Assay type: in vivo
- testParameters: 100 mg/kg oral twice a day, 28 days, fasted 16 hours, plasma
Each entry below carries its recorded HDL (HDL-cholesterol).

Worked examples, 3 compounds total:
{"columns": ["compound", "HDL (HDL-cholesterol)"],
 "data": [
  ["Cc1ccc(-c2nc(CCOc3cccc(CN(CC(=O)O)S(=O)(=O)N(C)C)c3)c(C)o2)cc1", "381.8 ± 40.1 mg/dL"],
  ["Cc1oc(-c2ccc(C(F)(F)F)cc2)nc1CCOc1cccc(CN(CC(=O)O)S(=O)(=O)N(C)C)c1", "321.4 ± 31.8 mg/dL"],
  ["Cc1oc(-c2ccc(C(F)(F)F)cc2)nc1COc1cccc(CN(CC(=O)O)S(=O)(=O)N(C)C)c1", "292.1 ± 24.7 mg/dL"]
]}

Continue with the compound presented below.
Tell me reported HDL (HDL-cholesterol) for CC(C)OC(=O)C(C)(C)Oc1ccc(C(=O)c2ccc(Cl)cc2)cc1 [fenofibrate, reference compound] , tested with ob/ob mice.
280.5 ± 28.5 mg/dL

---

- targetOfAssay: human PPAR α (Homo sapiens)
- Construct: expressed in transfected cells; host or cells: HepG2 (ATCC HB-8065) or 293T cells (ATCC CRL-1573)
- testName: Exogeneous PPAR α agonist assay (GAL4 DNA binding domain/PPAR α ligand binding domain, luciferase) in 293T cells
- Format: cell-based
- Set-up: scale not given here
- testParameters: 25 μM compound, 48 hours, luciferase activity increase relative to the control
Threshold 2: Activity at 25 μM Step 1 293T cell strictly smaller gives fulfilled, otherwise not fulfilled.

Consider the worked cases shown below.
{"columns": ["compoundStructureString", "assignedCategory"],
 "data": [
  ["Cc1ccc(-c2nc(COc3ccc(CN(CC(=O)O)S(=O)(=O)N4CCCc5ccccc54)cc3)c(C)o2)cc1", "not fulfilled"],
  ["Cc1ccc(-c2nc(COc3cccc(CN(CC(=O)O)S(=O)(=O)N4CCc5ccccc54)c3)c(C)o2)cc1", "not fulfilled"],
  ["Cc1oc(-c2ccc(C(F)(F)F)cc2)nc1COc1cccc(CN(CC(=O)O)S(=O)(=O)N(C)c2cccc(F)c2)c1", "not fulfilled"],
  ["Cc1oc(-c2ccc(C(F)(F)F)cc2)nc1CCOc1cccc(CN(CC(=O)O)S(=O)(=O)N(C)C)c1", "fulfilled"],
  ["C#CCN(C)S(=O)(=O)N(CC(=O)O)Cc1cccc(OCCc2nc(-c3ccc(C(F)(F)F)cc3)oc2C)c1", "not fulfilled"]
]}

Confirm or reject: Activity at 25 μM Step 1 293T cell of Cc1oc(-c2ccccc2)nc1CCOc1ccc(CN(CC(=O)O)S(=O)(=O)N(C)C)cc1 lies strictly below 2
fulfilled

Confirm or reject: Activity at 25 μM Step 1 293T cell of C#CCN(C)S(=O)(=O)N(CC(=O)O)Cc1cccc(OCc2nc(-c3ccc(C(F)(F)F)cc3)oc2C)c1 lies strictly below 2
not fulfilled

Confirm or reject: Activity at 25 μM Step 1 293T cell of Cc1oc(-c2ccc(C(F)(F)F)cc2)nc1CCOc1cccc(CN(CC(=O)O)S(=O)(=O)N2CCCC2)c1 lies strictly below 2
fulfilled

Confirm or reject: Activity at 25 μM Step 1 293T cell of Cc1ccc(-c2nc(COc3cccc(CN(CCC(=O)O)S(=O)(=O)N(C)C)c3)c(C)o2)cc1 lies strictly below 2
not fulfilled

---

- targetOfAssay: human PPAR α (Homo sapiens)
- Construct: expressed in transfected cells; host or cells: HepG2 (ATCC HB-8065) or 293T cells (ATCC CRL-1573)
- testName: Exogeneous PPAR α agonist assay (GAL4 DNA binding domain/PPAR α ligand binding domain, luciferase) in 293T cells
- Type: cell-based
- Parameters: scale not given here
- testParameters: 25 μM compound, 48 hours, luciferase activity increase relative to the control
Each entry below carries its recorded Activity at 25 μM Step 1 293T cell.
Please respond with just the number, no unit label.

Worked examples, 3 compounds total:
{"columns": ["compound", "resultValue"],
 "data": [
  ["Cc1ccc(-c2nc(CCOc3ccc(CN(CC(=O)O)S(=O)(=O)N(C)C(C)C)cc3)c(C)o2)cc1 [Example 102]", 4],
  ["Cc1oc(-c2ccccc2)nc1COc1cccc(CN(CC(=O)O)S(=O)(=O)N(C)c2ccc(Cl)cc2)c1 [Example 18]", 2],
  ["Cc1ccc(-c2nc(CCOc3ccc(CN(CC(=O)O)S(=O)(=O)N(C)c4ccccc4)cc3)c(C)o2)cc1 [Example 106]", 2]
]}

Return reported Activity at 25 μM Step 1 293T cell; argument: CCN(CC)S(=O)(=O)N(CC(=O)O)Cc1cccc(OCCc2nc(-c3ccc(C(F)(F)F)cc3)oc2C)c1 [Example 67]
2

Return reported Activity at 25 μM Step 1 293T cell; argument: Cc1oc(-c2ccc(C(F)(F)F)cc2)nc1COc1cccc(CN(CC(=O)O)S(=O)(=O)N2CCc3ccccc32)c1 [Example 32]
2

Return reported Activity at 25 μM Step 1 293T cell; argument: Cc1oc(-c2ccc(C(F)(F)F)cc2)nc1COc1ccc(CN(CC(=O)O)S(=O)(=O)N(C)C)cc1 [Example 40]
2

Return reported Activity at 25 μM Step 1 293T cell; argument: Cc1ccc(-c2nc(CCOc3ccc(CN(CC(=O)O)S(=O)(=O)N4CCc5ccccc54)cc3)c(C)o2)cc1 [Example 117]
3

Return reported Activity at 25 μM Step 1 293T cell; argument: Cc1oc(-c2ccccc2)nc1CCOc1cccc(CN(CC(=O)O)S(=O)(=O)N(C)C)c1 [Example 61]
2

---

Each entry below carries its recorded Activity at 25 μM Step 1 293T cell.
- targetOfAssay: human PPAR α (Homo sapiens)
- Construct: expressed in transfected cells; host or cells: HepG2 (ATCC HB-8065) or 293T cells (ATCC CRL-1573)
- testName: Exogeneous PPAR α agonist assay (GAL4 DNA binding domain/PPAR α ligand binding domain, luciferase) in 293T cells
- Type: cell-based
- Design: scale not given here
- testParameters: 25 μM compound, 48 hours, luciferase activity increase relative to the control
Please respond with just the number, no unit label.

Worked examples, 5 molecules total:
{"columns": ["molecule", "targetOfAssay", "resultValue"],
 "data": [
  ["Cc1ccc(-c2nc(COc3cccc(C(C)N(CC(=O)O)S(=O)(=O)N4CCCC4)c3)c(C)o2)cc1 (stereo not shown)", "human PPAR α (Homo sapiens)", 3],
  ["Cc1oc(-c2ccc(C(F)(F)F)cc2)nc1COc1ccc(CN(CC(=O)O)S(=O)(=O)N2CCc3ccccc32)cc1", "human PPAR α (Homo sapiens)", 2],
  ["Cc1oc(-c2ccc(C(F)(F)F)cc2)nc1COc1cccc(CN(CC(=O)O)S(=O)(=O)N(C)C(C)C)c1", "human PPAR α (Homo sapiens)", 4],
  ["Cc1oc(-c2ccc(C(F)(F)F)cc2)nc1COc1ccc(CN(CC(=O)O)S(=O)(=O)N2CCCc3ccccc32)cc1", "human PPAR α (Homo sapiens)", 3],
  ["Cc1oc(-c2ccc(C(F)(F)F)cc2)nc1COc1cccc(CN(CC(=O)O)S(=O)(=O)N2CCCCC2)c1", "human PPAR α (Homo sapiens)", 4]
]}

Return reported Activity at 25 μM Step 1 293T cell; argument: Cc1oc(-c2ccccc2)nc1COc1cccc(CN(CC(=O)O)S(=O)(=O)N(C)c2ccccc2)c1
2

Return reported Activity at 25 μM Step 1 293T cell; argument: Cc1oc(-c2cccs2)nc1CCOc1ccc(CN(CC(=O)O)S(=O)(=O)N2CCc3ccccc32)cc1
2

Just for reference, patent US20070254882A1 is where these values come from.
